Ref: patent US5324648A

# assayed target: cathepsin G (Homo sapiens, UniProt P08311)
# Construct: from tissue; host or cells: human leukocytes
# Sequence (P08311 21-255): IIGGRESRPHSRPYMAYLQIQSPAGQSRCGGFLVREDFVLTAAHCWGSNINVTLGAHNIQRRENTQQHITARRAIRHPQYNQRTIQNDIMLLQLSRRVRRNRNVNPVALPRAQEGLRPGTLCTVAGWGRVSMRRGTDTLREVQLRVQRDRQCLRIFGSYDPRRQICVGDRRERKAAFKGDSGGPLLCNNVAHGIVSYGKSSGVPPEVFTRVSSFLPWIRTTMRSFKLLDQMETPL
# test name: Inactivation of cathepsin G
# Format: biochemical
# assay conditions: Table XVI; pH 7.5, 25° C; [I] 35-710 μM; read-out: kobs/[I]
property measured: kinact/KI (M⁻¹ s⁻¹)

Example entries begin here.
> print(dat)
                                     smiles  recorded.measurement
1     CC(=O)Nc1ccc2c(Cl)c(OCCCBr)oc(=O)c2c1                   170
2  O=C(O)c1ccc(NC(=S)Nc2ccc3c(Cl)c(OCCBr)oc(=O)c3c2)cc1                   450
3  O=C(Cc1ccccc1)Nc1ccc2c(Cl)c(OCCBr)oc(=O)c2c1                    70
4  CC(C)(C)NC(=O)Nc1ccc2c(Cl)c(OCCBr)oc(=O)c2c1                    56

A: O=c1oc(OCCBr)c(Cl)c2ccc([N+](=O)[O-])cc12
B: C[C@@H](NC(=O)Nc1ccc2c(Cl)c(OCCBr)oc(=O)c2c1)c1ccccc1
Query: Thinking about recorded kinact/KI values, which is higher, A or B ? Pick one and reply with its label.
Response: A

###

Each entry below carries its reported kinact/KI.
# assayed target: human plasma kallikrein (Homo sapiens, UniProt P03952)
# Construct: human plasma kallikrein; from tissue; host or cells: human plasma (from the name)
# Sequence (P03952 391-638 limits assumed): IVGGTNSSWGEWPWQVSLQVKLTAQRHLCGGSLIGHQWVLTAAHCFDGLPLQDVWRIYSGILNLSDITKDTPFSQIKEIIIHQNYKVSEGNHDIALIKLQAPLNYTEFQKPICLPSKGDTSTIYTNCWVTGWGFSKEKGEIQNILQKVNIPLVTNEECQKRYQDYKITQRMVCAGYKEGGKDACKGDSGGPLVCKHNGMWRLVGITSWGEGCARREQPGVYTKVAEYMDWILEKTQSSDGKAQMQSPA
# Sequence (P03952 20-390 partner limits assumed): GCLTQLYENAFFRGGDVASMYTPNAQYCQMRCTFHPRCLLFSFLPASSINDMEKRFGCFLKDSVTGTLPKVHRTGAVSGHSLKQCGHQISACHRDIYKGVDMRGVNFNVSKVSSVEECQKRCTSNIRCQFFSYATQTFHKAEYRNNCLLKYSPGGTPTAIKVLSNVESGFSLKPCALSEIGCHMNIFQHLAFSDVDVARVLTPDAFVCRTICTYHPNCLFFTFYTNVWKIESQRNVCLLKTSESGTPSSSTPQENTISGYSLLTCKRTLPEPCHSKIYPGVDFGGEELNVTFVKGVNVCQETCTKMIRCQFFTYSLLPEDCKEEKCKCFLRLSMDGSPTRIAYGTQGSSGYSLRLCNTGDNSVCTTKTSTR
# test name: Inactivation rate of human plasma kallikrein
# Assay type: biochemical
# assay conditions: pH 7.5; Table I; based on residual activity at 0.2 min; read-out: kobs/[I]

Example entries begin here.
> print(dat)
                                     smiles                            assayed.target  property.measured  recorded.measurement
1  N=C(N)Nc1ccc2c(Cl)c(OCCc3ccccc3)oc(=O)c2c1  human plasma kallikrein (Homo sapiens, UniProt P03952)          kinact/KI      > 270000 M⁻¹ s⁻¹
2           N=C(N)SCCCOc1oc(=O)c2ccccc2c1Cl  human plasma kallikrein (Homo sapiens, UniProt P03952)          kinact/KI      > 110000 M⁻¹ s⁻¹
3            N=C(N)SCCOc1oc(=O)c2ccccc2c1Cl  human plasma kallikrein (Homo sapiens, UniProt P03952)          kinact/KI        280000 M⁻¹ s⁻¹

Turning to the following compound.
# kinact/KI (compound: CCOc1oc(=O)c2cc(NC(=N)N)ccc2c1Cl ) is > 500000 M⁻¹ s⁻¹

###

# assayed target: human factor Xa (Homo sapiens)
# Construct: human factor Xa
# Sequence (P00742 235-488 limits assumed): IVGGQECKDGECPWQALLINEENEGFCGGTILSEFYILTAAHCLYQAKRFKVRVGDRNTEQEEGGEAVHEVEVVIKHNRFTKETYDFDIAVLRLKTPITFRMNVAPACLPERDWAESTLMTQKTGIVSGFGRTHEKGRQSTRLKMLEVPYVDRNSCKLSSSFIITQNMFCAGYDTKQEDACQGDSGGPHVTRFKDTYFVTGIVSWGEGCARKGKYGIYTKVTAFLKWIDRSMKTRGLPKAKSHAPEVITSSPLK
# Sequence (P00742 41-179 partner limits assumed): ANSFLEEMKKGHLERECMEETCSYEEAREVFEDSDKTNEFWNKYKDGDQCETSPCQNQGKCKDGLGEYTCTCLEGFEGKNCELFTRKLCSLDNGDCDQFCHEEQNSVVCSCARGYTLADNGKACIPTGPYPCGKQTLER
# test name: Inactivation rate of human factor Xa
# Type: biochemical
# assay conditions: Table I; pH 7.5, 25° C; [I] 5 to 105 μM; read-out: kobs/[I]
property measured: kinact/KI (M⁻¹ s⁻¹)
Report the figure in M⁻¹ s⁻¹ without appending any unit label.

Example entries begin here.
> print(dat)
                                     smiles  recorded.measurement
1           COc1oc(=O)c2cc(NC(=N)N)ccc2c1Cl                 11000
2  N=C(N)Nc1ccc2c(Cl)c(OCCc3ccccc3)oc(=O)c2c1                 11000

# kinact/KI (molecule: N=C(N)SCCCOc1oc(=O)c2cc(N)ccc2c1Cl ) is 60

# kinact/KI (molecule: CCOc1oc(=O)c2cc(NC(=N)N)ccc2c1Cl ) is 11000
